Numbers sourced from patent US5550243A.

Tested on: visna virus
experimentDescription: microbe, parasite or virus in culture
Type: cell-based
setupConditions: Visna-maedi virus, read-out: Visna % Plaque Redn (Conc)
Measured inhibition at 1000 µM, listed per entry for reference.
metricName: inhibition at 1000 µM (%)

1. N[C@H]1[C@H](O)[C@@H](CO)NC[C@@H]1O [Compound 37] = 30
2. NC1CN(CCCC(F)(F)F)C(CO)C(O)C1O (centres unmarked) [Compound 23] = 9
3. CN(C)CCN[C@@H]1[C@H](O)[C@@H](CO)NC[C@H]1O [Compound 50] = 38
4. [N-]=[N+]=NC1CN(CCCC(F)(F)F)C(CO)C(O)C1O (centres unmarked) [Compound 15] = 41
5. CCCCN1CC(N)C(N)C(O)C1CO (centres unmarked) [Compound 46] = 3
